# viability (% of control) per record follows
Test: High-throughput drug toxicity screening in the BPDCN cell line Cal-1 (AID 1224825);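 note: cells exposed to compounds for 48 h; 100% = DMSO and 0% = bortezomib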
Settings: Cal-1 BPDCN cell viability, qHTS; at 45.8 µM (top of the series)
Experimental Endpoint: viability (% of control) (%)

compound=Cc1cccc(C)c1NC(=O)CN1CCCC1=O experimental_endpoint="viability (% of control)" quantitative_result=110
compound="COc1ccc(C(CN(C)C)C2(O)CCCCC2)cc1 (centres undefined)" experimental_endpoint="viability (% of control)" quantitative_result=107
compound="C[C@@H]1[C@@H](CC(C[C@H]2O[C@@H]3O[C@]4(C)CC[C@@H]5[C@H](C)CC[C@@H]([C@H]2C)[C@@]35OO4)C[S+](=O)([O-])c2ccc(COC(=O)N(C)C)cc2)O[C@@H]2O[C@]3(C)CC[C@H]4[C@H](C)CC[C@@H]1[C@@]24OO3 (some centres undefined)" experimental_endpoint="viability (% of control)" quantitative_result=13.4
compound="CNCC(O)c1ccc(O)cc1 (centres undefined)" experimental_endpoint="viability (% of control)" quantitative_result=114
compound=CNC(=O)c1ccc(N2C(=S)N(c3ccc(C#N)c(C(F)(F)F)c3)C(=O)C23CCC3)cc1F experimental_endpoint="viability (% of control)" quantitative_result=7.78
compound=COc1ccc(C(=O)c2c(C)n(CCN3CCOCC3)c3ccccc23)cc1 experimental_endpoint="viability (% of control)" quantitative_result=101
compound=C=C(C)[C@H]1Cc2c(ccc3c2O[C@@H]2COc4cc(OC)c(OC)cc4[C@@H]2C3=O)O1 experimental_endpoint="viability (% of control)" quantitative_result=11.5
compound="O=P1(NCCCl)OCCCN1CCCl (centres undefined)" experimental_endpoint="viability (% of control)" quantitative_result=20.1
compound=Cn1c(CCCC(=O)O)nc2cc(N(CCCl)CCCl)ccc21 experimental_endpoint="viability (% of control)" quantitative_result=6.62

###

Tested on: CP256
Experiment: qHTS profiling for inhibitors of Plasmodium falciparum proliferation (AID 504749); note: nearly all actives have a fitted effect of over 60% in size
Conditions: P. falciparum in erythrocytes, SYBR Green DNA, 72 h; series mostly up to 28.7 µM
Records with an inconclusive call do not appear. Calls of active or inactive are those of the source. Calls come from the whole dose curve; as a rule, active = well fitted inhibition curve with a large enough effect; inconclusive = small, poorly fitted or top-dose-only effect; inactive = flat fitted curve, though single readings scatter.
Labels: y = active, n = inactive

compound="CCCC1CCCCN1 (centres undefined)" discrete_label=n
compound=CCN(C(C)=O)c1cccc(-c2ccnc3c(C#N)cnn23)c1 discrete_label=n
compound=COc1ccc(C(=O)c2c(C)n(CCN3CCOCC3)c3ccccc23)cc1 discrete_label=n
compound=NN=C(N)N discrete_label=n
compound="c1ccc2c(c1)OCC(C1=NCCN1)O2 (centres undefined)" discrete_label=n
compound=CC[N+](CC)(CC)CC discrete_label=n
compound="CC[N+]1(C)CCCC(OC(=O)C(O)(c2ccccc2)c2ccccc2)C1 (centres undefined)" discrete_label=n
compound="O=C(NC(O)C(Cl)(Cl)Cl)NC(O)C(Cl)(Cl)Cl (centres undefined)" discrete_label=n
compound=CCN(CC)CCN1C(=O)CN=C(c2ccccc2F)c2cc(Cl)ccc21 discrete_label=n
compound=COc1ccccc1N1CCNCC1 discrete_label=n
compound=CC(=O)[C@H]1CC[C@H]2[C@@H]3CC[C@H]4C[C@](C)(O)CC[C@]4(C)[C@H]3CC[C@]12C discrete_label=n
compound=CC(=O)[C@H]1CC[C@H]2[C@@H]3CC[C@H]4C[C@H](O)CC[C@]4(C)[C@H]3C(=O)C[C@]12C discrete_label=n
compound="CCC(C(N)=O)N1CCCC1=O (centres undefined)" discrete_label=n
compound=C=C(C)[C@H]1Cc2c(ccc3c2O[C@@H]2COc4cc(OC)c(OC)cc4[C@@H]2C3=O)O1 discrete_label=n
compound=CCOC(=O)C1(c2ccccc2)CCN(CCC(C#N)(c2ccccc2)c2ccccc2)CC1 discrete_label=y
compound=NCC1(CC(=O)O)CCCCC1 discrete_label=n
compound=CC(C)(C)CC(C)(C)c1ccc(O)cc1 discrete_label=n
compound="NCC(O)c1ccc(O)cc1 (centres undefined)" discrete_label=n
compound="O=P1(NCCCl)OCCCN1CCCl (centres undefined)" discrete_label=n
compound=CC(=O)Nc1cc([As](=O)(O)O)ccc1O discrete_label=n
compound=Clc1cccc(N2CCNCC2)c1 discrete_label=n
compound=O=C(O)c1ccc2[nH]cc(CCCCN3CC=C(c4ccccc4)CC3)c2c1 discrete_label=n
compound=Cc1ncc(CNC(=O)N(CCCl)N=O)c(N)n1 discrete_label=n
compound="NCC(CC(=O)O)c1ccc(Cl)cc1 (centres undefined)" discrete_label=n
compound=Nc1ccncc1 discrete_label=n
compound="CC(C)=CC1C(C(=O)OCc2cccc(Oc3ccccc3)c2)C1(C)C (centres undefined)" discrete_label=n
compound=CN1C[C@H](CNC(=O)OCc2ccccc2)C[C@@H]2c3cccc4c3c(cn4C)C[C@H]21 discrete_label=y
compound=Cn1c(CCCC(=O)O)nc2cc(N(CCCl)CCCl)ccc21 discrete_label=n
compound=CC[C@@H](CO)NC(=O)[C@@H]1C=C2c3cccc4[nH]cc(c34)C[C@H]2N(C)C1 discrete_label=n
compound="O=C1NCN(c2ccccc2)C12CCN(CC1COc3ccccc3O1)CC2 (centres undefined)" discrete_label=n
compound=N[C@@H](Cc1ccc(N(CCCl)CCCl)cc1)C(=O)O discrete_label=n
compound=Cc1ccc(S(=O)(=O)N[C@@H](CCCCN)C(=O)CCl)cc1 discrete_label=y
compound="CC1NCCOC1c1ccccc1 (centres undefined)" discrete_label=n
compound=c1ccc(C2CC2)c(OCC2=NCCN2)c1 discrete_label=n

###

System: ICS
Assay: qHTS profiling for inhibitors of Plasmodium falciparum proliferation (AID 504749); note: nearly all actives have a fitted effect of over 60% in size
Details: P. falciparum in erythrocytes, SYBR Green DNA, 72 h; series mostly up to 28.7 µM
Results filed as inconclusive are left out. The source made the active and inactive calls. The call rests on the fitted dose curve; in most records, active means well fitted inhibition curve with a large enough effect; inconclusive means small, poorly fitted or top-dose-only effect; inactive means flat fitted curve, though single readings scatter.
Outcome codes: T (active), F (inactive)

compound=Cc1ccc(-c2nc3ccc(C)cn3c2CC(=O)N(C)C)cc1 discrete_label=F
compound=c1ccc2c(c1)Nc1ccccc1S2 discrete_label=T
compound=O=[N+]([O-])c1cc([As](=O)(O)O)ccc1O discrete_label=T
compound=CC(C)(N)Cc1ccc(Cl)cc1 discrete_label=F
compound=CC(=O)Nc1cc([As](=O)(O)O)ccc1O discrete_label=F
compound=N#CC(C#N)=Cc1ccc(O)c(O)c1 discrete_label=F
compound=CN1CCN(C(=O)O[C@H]2c3nccnc3C(=O)N2c2ccc(Cl)cn2)CC1 discrete_label=F
compound=Oc1cccc2cccnc12 discrete_label=F
compound=O=c1[nH]c2ccccc2n1CCCN1CCC(n2c(=O)[nH]c3cc(Cl)ccc32)CC1 discrete_label=T
compound="NCC(O)c1ccc(O)cc1 (stereo not drawn)" discrete_label=F
compound=c1ccc(C2CC2)c(OCC2=NCCN2)c1 discrete_label=F
compound="COc1ccc(C(CN(C)C)C2(O)CCCCC2)cc1 (stereo not drawn)" discrete_label=F
compound="CC(C)NCC(O)c1ccccc1Cl (stereo not drawn)" discrete_label=T

###

Assay: qHTS for differential inhibitors of proliferation of Plasmodium falciparum line GB4 (AID 1816);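 note: parasite growth measured after 72 h incubation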
Conditions: Plasmodium falciparum GB4 proliferation inhibition; series mostly up to 28.7 µM
Inconclusive results are not listed. The source made the active and inactive calls. Calls follow the shape of the dose curve; as a rule, active = well fitted curve in the direction sought with a large enough effect; inconclusive = small, poorly fitted or top-dose-only effect, or another doubt; inactive = no such curve, though single readings can be large or run the other way.
Outcome codes: True for active, False for inactive

smiles_repr=O=c1[nH]cc(F)c(=O)[nH]1 discrete_label=True
smiles_repr=Cc1ccc(S(=O)(=O)N[C@@H](CCCCN)C(=O)CCl)cc1 discrete_label=False
smiles_repr=Clc1cccc(N2CCNCC2)c1 discrete_label=True
smiles_repr=Cc1ncc(CNC(=O)N(CCCl)N=O)c(N)n1 discrete_label=False
smiles_repr=N#CC(C#N)=Cc1ccc(O)c(O)c1 discrete_label=True
smiles_repr=O=c1[nH]c2ccccc2n1C1CCN(CCCC(c2ccc(F)cc2)c2ccc(F)cc2)CC1 discrete_label=True
smiles_repr=NN=C(N)N discrete_label=False

###

Conditions: Ebola virus entry assay, ratio channel
Activity calls are given as the source filed them.
Classes used: active, inactive

compound=Cc1nc2n(c(=O)c1CCN1CCC(c3noc4cc(F)ccc34)CC1)CCCC2 discrete_label=inactive
compound=Cc1ccc(S(=O)(=O)NC(=O)NN2CCCCCC2)cc1 discrete_label=inactive
compound="CCCCC(CC)CN=C(N)NC(N)=NCCCCCCN=C(N)NC(N)=NCC(CC)CCCC (stereo unspecified)" discrete_label=inactive
compound="CNCCC(Oc1ccc(C(F)(F)F)cc1)c1ccccc1 (stereo unspecified)" discrete_label=active
compound=CCOc1ccccc1OCCN[C@H](C)Cc1ccc(OC)c(S(N)(=O)=O)c1 discrete_label=inactive
compound=CCCCc1oc2ccccc2c1C(=O)c1cc(I)c(OCCN(CC)CC)c(I)c1 discrete_label=active
compound="Cc1ccccc1N1C(=O)c2cc(S(N)(=O)=O)c(Cl)cc2NC1C (stereo unspecified)" discrete_label=inactive
compound=COCCCC/C(=N\OCCN)c1ccc(C(F)(F)F)cc1 discrete_label=active
compound=CCc1c2c(nc3ccc(OC(=O)N4CCC(N5CCCCC5)CC4)cc13)-c1cc3c(c(=O)n1C2)COC(=O)[C@]3(O)CC discrete_label=active
compound=NP(N)(=O)NC(=O)c1ccc(F)cc1 discrete_label=inactive
compound=Cc1ncc([N+](=O)[O-])n1CCO discrete_label=inactive
